# Target Under Test: T1, Fus1, P11710
# T1 sequence (P11710 432-512, looked up): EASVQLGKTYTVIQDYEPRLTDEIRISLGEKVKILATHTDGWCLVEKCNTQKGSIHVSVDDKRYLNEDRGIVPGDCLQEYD
# Test Name: SPOT array
# Run Conditions: median of control spots 1200
binders and their reported SPOT intensity
Field format: numeric only.

Worked cases, SPOT intensity given:
PPIPIVPSSPAPPLP    0
PSRRDSLSIPRAVDA    0
PLRRTVMSLPGNHDI    1
NQARKPFLLPATELS    0
HRRRRVFSIPSLKSI    136
MAMRPIPPLPTESEY    0

// switching to the query binder
Sample "RKRAPTPPAPSRSEK" ; SPOT intensity observed: 14

Cited source for all entries: paper PMC2756588
